target: ABCA4 P1380L (Homo sapiens, UniProt P78363, P1380L); construct: expressed in transfected cells; test: A4 correction dose-response assay: ABCA4 P1380L HiBit protein expression; assay type: cell-based; details: HEK-293 cells stably expressing HiBit-tagged ABCA4 P1380L; 24 h treatment; top concentration 30 μM; read-out: ABCA4 P1380L EC50, Emax
Sequence (P78363 whole entry P1380L): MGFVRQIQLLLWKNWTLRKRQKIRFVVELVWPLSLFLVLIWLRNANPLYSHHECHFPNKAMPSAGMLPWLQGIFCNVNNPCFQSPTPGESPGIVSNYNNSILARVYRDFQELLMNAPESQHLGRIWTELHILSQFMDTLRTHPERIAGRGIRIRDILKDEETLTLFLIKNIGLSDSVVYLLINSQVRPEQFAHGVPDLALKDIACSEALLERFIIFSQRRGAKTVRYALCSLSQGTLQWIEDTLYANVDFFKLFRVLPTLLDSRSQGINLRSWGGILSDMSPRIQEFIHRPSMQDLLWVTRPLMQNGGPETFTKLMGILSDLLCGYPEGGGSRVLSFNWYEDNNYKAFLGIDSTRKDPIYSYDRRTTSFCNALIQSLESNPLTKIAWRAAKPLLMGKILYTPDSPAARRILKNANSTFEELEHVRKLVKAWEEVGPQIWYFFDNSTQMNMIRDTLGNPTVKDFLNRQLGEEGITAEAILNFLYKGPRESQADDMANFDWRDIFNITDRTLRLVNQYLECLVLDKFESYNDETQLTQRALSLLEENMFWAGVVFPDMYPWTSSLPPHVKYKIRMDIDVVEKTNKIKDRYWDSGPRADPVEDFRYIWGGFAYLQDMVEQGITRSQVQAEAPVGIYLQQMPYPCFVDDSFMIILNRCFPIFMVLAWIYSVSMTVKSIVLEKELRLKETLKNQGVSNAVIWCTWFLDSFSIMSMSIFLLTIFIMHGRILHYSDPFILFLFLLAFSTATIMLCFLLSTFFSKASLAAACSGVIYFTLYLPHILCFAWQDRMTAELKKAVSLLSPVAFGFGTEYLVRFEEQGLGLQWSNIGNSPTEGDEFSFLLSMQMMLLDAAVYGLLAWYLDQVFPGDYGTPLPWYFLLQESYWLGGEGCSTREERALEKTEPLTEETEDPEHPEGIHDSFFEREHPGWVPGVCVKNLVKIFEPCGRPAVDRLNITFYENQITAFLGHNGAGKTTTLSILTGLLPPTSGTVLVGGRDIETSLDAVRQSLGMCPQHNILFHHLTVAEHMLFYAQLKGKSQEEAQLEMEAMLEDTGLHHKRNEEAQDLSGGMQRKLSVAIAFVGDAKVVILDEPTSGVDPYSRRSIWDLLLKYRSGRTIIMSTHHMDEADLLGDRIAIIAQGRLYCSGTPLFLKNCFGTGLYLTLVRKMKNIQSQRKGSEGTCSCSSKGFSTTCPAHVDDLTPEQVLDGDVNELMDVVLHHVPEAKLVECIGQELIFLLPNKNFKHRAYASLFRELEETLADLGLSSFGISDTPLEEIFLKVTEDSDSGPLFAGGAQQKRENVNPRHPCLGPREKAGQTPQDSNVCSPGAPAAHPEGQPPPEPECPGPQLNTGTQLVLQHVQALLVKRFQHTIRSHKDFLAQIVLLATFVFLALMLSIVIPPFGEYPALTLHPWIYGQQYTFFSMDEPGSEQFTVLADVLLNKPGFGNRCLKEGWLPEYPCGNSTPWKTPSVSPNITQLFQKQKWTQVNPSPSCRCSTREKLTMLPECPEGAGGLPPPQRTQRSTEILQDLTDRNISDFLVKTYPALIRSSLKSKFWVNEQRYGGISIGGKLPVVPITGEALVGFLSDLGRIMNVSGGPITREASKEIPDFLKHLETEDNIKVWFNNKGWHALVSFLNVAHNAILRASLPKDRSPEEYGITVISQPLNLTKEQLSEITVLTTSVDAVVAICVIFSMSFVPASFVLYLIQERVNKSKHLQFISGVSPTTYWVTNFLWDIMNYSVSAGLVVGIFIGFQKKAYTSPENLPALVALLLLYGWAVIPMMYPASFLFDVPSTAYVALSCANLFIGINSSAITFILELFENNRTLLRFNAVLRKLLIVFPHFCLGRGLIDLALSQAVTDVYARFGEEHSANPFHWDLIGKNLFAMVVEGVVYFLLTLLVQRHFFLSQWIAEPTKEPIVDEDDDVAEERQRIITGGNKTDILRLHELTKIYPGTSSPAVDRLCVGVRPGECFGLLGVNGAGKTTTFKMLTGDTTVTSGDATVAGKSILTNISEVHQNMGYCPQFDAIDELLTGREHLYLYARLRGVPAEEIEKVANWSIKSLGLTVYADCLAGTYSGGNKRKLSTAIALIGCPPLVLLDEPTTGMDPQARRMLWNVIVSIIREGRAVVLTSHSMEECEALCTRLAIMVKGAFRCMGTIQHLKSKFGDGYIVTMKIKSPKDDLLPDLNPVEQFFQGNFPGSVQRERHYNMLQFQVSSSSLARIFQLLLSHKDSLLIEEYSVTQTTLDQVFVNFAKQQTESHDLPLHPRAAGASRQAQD
measurement-label: EC50

List the reported EC50 of each molecule below.
1. Cc1cc(C)c(Oc2nc(-c3cncc(Cl)c3)ccc2S(C)(=O)=O)c(C)c1
2. Cc1cc(C)c(Oc2nc(N3CC4CC3CN4C(=O)C3CC3)ccc2NS(C)(=O)=O)c(C)c1 (single isomer, unassigned) [Compound I-18]
3. Cc1nc(C2CC2)cc(C2CC2)c1Oc1nc(-c2cncc(C#N)c2)ccc1NS(C)(=O)=O
4. Cc1cc(C)c(Oc2nc(-c3cncc(C#N)c3)ccc2S(=N)(=O)C2CC2)c(C)n1 (centres unmarked)
5. Cc1cc(C)c(Oc2nc(N3CCN(C(=O)OC(C)C)CC3)ccc2NS(C)(=O)=O)c(C)c1
6. Cc1cc(C)c(Oc2nc(-c3cncc(C#N)c3)ccc2NS(=O)(=O)C(C)C)c(C)n1
7. COc1cc(C)c(Oc2nc(-c3cncc(C#N)c3)ccc2NS(C)(=O)=O)c(C)n1
8. Cc1cc(C)c(Oc2nc(-c3ccnc(C#N)c3)ccc2NS(=O)(=O)C2CC2)c(C)n1

1 to 10 µM
10 to 25 µM
< 1 µM
1 to 10 µM
1 to 10 µM
< 1 µM
< 1 µM
10 to 25 µM

List the reported EC50 of each molecule below.
1. Cc1cc(C(F)(F)F)nc(C2CC2)c1Oc1nc(-c2cncc(C#N)c2)ccc1S(=N)(=O)C1CC1 (centres unmarked)
2. Cc1nc(C2CCC2)nc(C)c1Oc1nc(-c2cncc(C#N)c2)ccc1NS(C)(=O)=O
3. Cc1cc(C)c(Oc2nc(-c3cncc(C#N)c3)cnc2NS(C)(=O)=O)c(C)c1

1. > 25 µM
2. < 1 µM
3. < 25 µM
